Consider the following molecules; for each one, report its Cas9 with SSAP activity (normalized).
Test system: gene editing with Cas9
run description: Screen of 322 new SSAP proteins, gene editing activity with Cas9 (Table 5)
Type: cell-based
condition label: normalized
Keep the answer to the number alone.

Request the reported Cas9 with SSAP activity (normalized) associated with SSAP_229: SEQ ID NO: 398; Amycolatopsis sp. CB00013 (protein, listed as Amycolatopsis sp.) TTQTVTSAVAQQDSSPAALVRKYRTDFATVLPSHIKPETWLRIATGALRRSSQLAHAAEKNPTSLLVALLDAARKGLEPGTEQYYLVPRKTKRGPEVLGITGYQGEVELMYRAGAVSSVKVEGVREHDTFAYNPGEHDRPVHEINWRANRGDLVLAYAYAYAKMRDGATSNVSVLSADDIAVILSKAEGADSPFSPWQWNPKAMWLKSAAHQLAKWVPTSAERVWQPDGPPLEAPPATPVTLPTVEDVVDAEVVEDWPTTPADTADSEQ −0.509

Which Cas9 with SSAP activity (normalized) value belongs to SSAP_274: SEQ ID NO: 443; Clostridium liquoris (protein, listed as Clostridium liquoris) TTASELKNQLATRKETGVGSAGNTVKGLLESPAIKKRFEEVLKQRAPQYMSSIVNLVNGDANLKKCDQMSVIASCMVAATLDLPVDKNLGYAWVVPYGNKAQFQLGYKGYVQLALRTGQYKSINVIEIHEGELIEWNPLTEELRIDFEKKKSDAIIGYAGYFELINGFRKSTYWTKEQITKHKNKFSKSDFGWKKDFDAMAKKTVLRNMLSKWGILSIEMQNAYTADQETIKSEVLETGNIKENVEYVEADFDVDFEGTPFEEGVTNE ? 0.259

Bench note: what Cas9 with SSAP activity (normalized) did SSAP_163: SEQ ID NO: 332; Clostridium sp. Marseille-P3244 (protein, listed as Clostridium sp.) AARATNSVKEELAKKAETKAVGEKKLTRSMSIADLIKAMAPEIKKALPEVITPERFTRMALSALNTTPKLQECTQMSFLAALMNAAQLGLEPNTPLGQAYLIPFNNKGTMECQFQIGYKGLIDLGYRNPQMQIISAQAVYENDEFEYELGLNPKLEHRPALHDRGELRLFYGLFKLVNGGFGFEVMSKEAVDAYAKEYSKSFDSSFSPWKTNYEAMAKKTVIKQALKYAPIKADFRKALSTDETIKNEIAEDMSEIHGEDIFDAEYTEQTA show? 1.914

Fill in the blank: the reported Cas9 with SSAP activity (normalized) of SSAP_68: SEQ ID NO: 237 (protein) TQQMPIEAQGEPTKELQQKAAVDRFNATLHQMQNEIARALPKHMTGDRFVRIVLTEVRKDPTLALCDPLTMFGSLLTAAALGLEPGLNGECWLVPRKNHGTLEAQLQVGYRGVVKLFWQNPAAAYLDTGYVCERDHFRFAKGLNPILEHTPAEGDRGKVVRYYAVAGLNTGARVFDVFTPAQIKTLRGGKVGSNGDIPDPEHWMERKTALLQVLKLMPKSTQLAAVPAADGRAHTISDAQQIFGGVDTSTGEVLEAEPVEGDAA is ____. 4.696
